Experiment: Visual solubility analysis in 13 solvents
Type: physicochemical
Settings: organic solvent or mixture, thermodynamic from solid, Acetone/water 90:10, 20° C., read-out: Solubility (S)
readout_label: solubility

[[record]]
molecule = "CC#C[C@@H](CC(=O)O)c1ccc(O[C@@H]2CCc3c(-c4ccc(O[C@@H]5CCOC5)nc4)ccc(F)c32)cc1 [Crystalline Form Compound 1]"
value = "> 100 mg/mL"


----------
Test: Visual solubility analysis in 13 solvents
Assay type: physicochemical
Conditions: organic solvent or mixture, thermodynamic from solid, Methyl tert-butyl ether, 20° C., read-out: Solubility (S)
readout_label: solubility

[[record]]
compound = "CC#C[C@@H](CC(=O)O)c1ccc(O[C@@H]2CCc3c(-c4ccc(O[C@@H]5CCOC5)nc4)ccc(F)c32)cc1 [Crystalline Form Compound 1]"
value = "2000 to 5000 µg/mL"


Attribution: patent US20230022803A1
